IC50 overview
- target-under-test: Human Factor XIIa (Homo sapiens, UniProt P00748)
- Construct: purchased Enzyme Research Laboratories
- Sequence (P00748 373-615 limits assumed): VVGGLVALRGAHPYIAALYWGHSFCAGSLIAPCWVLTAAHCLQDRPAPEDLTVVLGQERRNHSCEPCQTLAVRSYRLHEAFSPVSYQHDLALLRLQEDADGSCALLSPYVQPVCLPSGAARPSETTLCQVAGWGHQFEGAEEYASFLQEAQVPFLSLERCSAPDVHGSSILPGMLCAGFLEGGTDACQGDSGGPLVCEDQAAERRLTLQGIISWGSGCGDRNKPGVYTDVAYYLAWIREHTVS
- Sequence (P00748 20-372 partner limits assumed): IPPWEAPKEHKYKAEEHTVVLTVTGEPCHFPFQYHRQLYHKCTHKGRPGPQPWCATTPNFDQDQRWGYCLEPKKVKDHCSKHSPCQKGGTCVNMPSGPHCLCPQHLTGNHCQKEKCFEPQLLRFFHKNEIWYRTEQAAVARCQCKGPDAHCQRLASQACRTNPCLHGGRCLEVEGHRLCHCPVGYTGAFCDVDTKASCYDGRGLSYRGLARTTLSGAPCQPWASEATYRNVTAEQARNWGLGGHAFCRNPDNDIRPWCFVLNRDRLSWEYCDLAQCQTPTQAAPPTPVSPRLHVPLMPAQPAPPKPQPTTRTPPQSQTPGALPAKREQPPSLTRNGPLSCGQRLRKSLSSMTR
- assay-comment: Determination of Factor XIIa inhibitory activity in vitro (fluorogenic substrate H-DPro-Phe-Arg-AFC)
- Format: biochemical
- assay-conditions: Human Factor XIIa (Enzyme Research Laboratories), 25° C., read-out: Human FXIIa IC50
value-type: IC50

>>> reading("CN1CCN(CCNc2ncc(C(=O)NCc3ccc4c(N)nccc4c3)cc2Cl)CC1")
"10 to 40 µM"
>>> reading("Nc1nccc2cc(CNC(=O)c3cc(Cl)cnc3Oc3ccc(N4CCCC4=O)cc3)ccc12")
"3 to 10 µM"
>>> reading("CN1CCC(CNc2nc(-c3ccccc3)ccc2C(=O)NCc2ccc3c(N)nccc3c2)CC1")
"1 to 3 µM"
>>> reading("COc1ccc(CN(C)c2ncc(C(=O)NCc3ccc4c(N)nccc4c3)cc2Cl)cc1")
"10 to 40 µM"
>>> reading("CC(C)NC(=O)N(C)c1ccc(Oc2ncc(C(=O)NCc3ccc4c(N)nccc4c3)cc2Cl)cc1")
"3 to 10 µM"
>>> reading("Nc1nccc2cc(CNC(=O)c3cc(Cl)cnc3NCc3cccnc3)ccc12")
"3 to 10 µM"
>>> reading("Nc1nccc2cc(CNC(=O)c3cnc(NC4CCN(C5CC5)CC4)c(Cl)c3)ccc12")
"10 to 40 µM"
>>> reading("Nc1nccc2cc(CNC(=O)c3cc(Cl)cnc3NCC(=O)N3CCOCC3)ccc12")
"10 to 40 µM"

---

pIC50: −log10 of the molar value.
A short record of pIC50 observed with UniProt:P00748 follows.
value-type: pIC50

>>> reading("COc1ccccc1Nc1ncc(Cl)cc1C(=O)NCc1ccc2c(N)nccc2c1 [Example 1.38]")
"4.40 to 5.00"
>>> reading("CN1CCC(CNc2ncc(Cl)cc2C(=O)NCc2c(Cl)cccc2-n2cnnn2)CC1 [Example 33.01]")
"5.00 to 5.52"
>>> reading("Nc1nccc2cc(CNC(=O)c3cc(Cl)cnc3NCC3CCN(c4ccncc4)CC3)ccc12 [Example 1.28]")
"6.00 to 6.52"
>>> reading("Nc1nccc2cc(CNC(=O)c3cc(Cl)cnc3N3CCN(c4ncccn4)CC3)ccc12 [Example 16.04]")
"4.40 to 5.00"
>>> reading("CN(CC1CCN(c2ccncc2)CC1)c1ncc(C(=O)NCc2ccc3c(N)nccc3c2)cc1Cl [Example 8.09]")
"5.52 to 6.00"
>>> reading("Nc1nccc2cc(CNC(=O)c3cc(Cl)cnc3NCc3ccc4c(c3)OCO4)ccc12 [Example 1.21]")
"4.40 to 5.00"
>>> reading("Nc1nccc2cc(CNC(=O)c3cc(Cl)cnc3NCCOc3ccccc3)ccc12 [Example 1.14]")
"5.00 to 5.52"
>>> reading("CN1CCC(CNc2ncc(-c3cnn(C)c3)nc2C(=O)NCc2ccc3c(N)nccc3c2)CC1 [Example 4.20]")
"6.00 to 6.52"

---

- target-under-test: Human FXIa (Homo sapiens, UniProt P03951)
- Sequence (P03951 388-625 limits assumed): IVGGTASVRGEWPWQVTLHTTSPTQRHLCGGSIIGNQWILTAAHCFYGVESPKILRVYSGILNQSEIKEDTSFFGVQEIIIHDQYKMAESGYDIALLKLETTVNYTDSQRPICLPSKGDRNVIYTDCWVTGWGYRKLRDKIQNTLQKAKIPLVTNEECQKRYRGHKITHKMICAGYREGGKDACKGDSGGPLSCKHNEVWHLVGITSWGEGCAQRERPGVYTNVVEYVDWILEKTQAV
- Sequence (P03951 19-387 partner limits assumed): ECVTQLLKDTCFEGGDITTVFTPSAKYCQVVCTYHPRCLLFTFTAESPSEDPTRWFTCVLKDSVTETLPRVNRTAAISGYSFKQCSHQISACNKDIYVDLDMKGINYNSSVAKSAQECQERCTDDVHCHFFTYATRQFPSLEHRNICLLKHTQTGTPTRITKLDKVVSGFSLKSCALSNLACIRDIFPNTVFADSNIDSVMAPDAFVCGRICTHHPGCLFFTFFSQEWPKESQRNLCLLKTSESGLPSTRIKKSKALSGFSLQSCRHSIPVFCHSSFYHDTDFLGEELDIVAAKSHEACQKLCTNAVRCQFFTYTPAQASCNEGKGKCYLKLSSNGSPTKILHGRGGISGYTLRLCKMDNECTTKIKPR
value-type: IC50

>>> reading("Nc1nccc2cc(CNC(=O)c3cc(Cl)cnc3NCC3CCN(CC4CC4)CC3)ccc12")
"> 40 µM"
>>> reading("Nc1nccc2cc(CNC(=O)c3cnc(N4CCN(c5ccncc5)CC4)c(Cl)c3)ccc12")
"> 40 µM"
>>> reading("CN1C(C)(C)CC(Nc2ncc(Cl)cc2C(=O)NCc2ccc3c(N)nccc3c2)CC1(C)C")
"> 40 µM"
>>> reading("COc1ccc(-n2cc(C(=O)O)nn2)c(CNC(=O)c2nccnc2NCC2CCN(C)CC2)c1F")
"33.5 µM"
>>> reading("Cc1cnc(NCC2CCN(C)CC2)c(C(=O)NCc2ccc3c(N)nccc3c2)c1")
"> 40 µM"
>>> reading("Nc1nccc2cc(CNC(=O)c3cnc(OCCN4CCCCC4)c(Cl)c3)ccc12")
"> 40 µM"
>>> reading("Nc1nccc2cc(CNC(=O)c3cc(Cl)cnc3NCC3CCN(Cc4cscn4)CC3)ccc12")
"> 40 µM"
>>> reading("CN1CCC(CNc2nccnc2C(=O)NCc2ccc3ccnc(N)c3c2)CC1")
"> 40 µM"
>>> reading("Nc1nccc2cc(CNC(=O)c3cc(Cl)cnc3NC[C@@H]3CCC(=O)N3)ccc12")
"> 40 µM"
>>> reading("CN1CCC(CNc2ncc(C3CC3)cc2C(=O)NCc2ccc3c(N)nccc3c2)CC1")
"> 40 µM"
>>> reading("CC(C)N1CCCC(C(=O)Nc2ncc(Cl)cc2C(=O)NCc2ccc3c(N)nccc3c2)C1 (stereo not drawn)")
"> 40 µM"
>>> reading("CC(=O)N1CCC(Nc2ncc(C(=O)NCc3ccc4c(N)nccc4c3)cc2Cl)CC1")
"> 40 µM"
>>> reading("Nc1nccc2cc(CNC(=O)c3cc(Cl)cnc3NCC3CCN(C4CCCC4)CC3)ccc12")
"> 40 µM"
>>> reading("COc1ccc(-n2cncn2)c(CNC(=O)c2nccnc2NCC2CCN(C)CC2)c1F")
"> 40 µM"
>>> reading("CN1CCC(CNc2nccnc2C(=O)Nc2cccc3[nH]cc(Cl)c23)CC1")
"> 40 µM"
>>> reading("CN1CCC(CNc2cncc(C(=O)NCc3ccc4c(N)nccc4c3)n2)CC1")
"> 40 µM"
>>> reading("CN1CCc2c(cccc2Nc2nccnc2C(=O)NCc2ccc3c(N)nccc3c2)C1")
"> 40 µM"
>>> reading("CN1CCC(CNc2nc(-c3cccnc3)ccc2C(=O)NCc2ccc3c(N)nccc3c2)CC1")
"> 40 µM"
>>> reading("CN1CCC(Nc2ncc(Cl)cc2C(=O)NCc2ccc3c(N)nccc3c2)CC1")
"> 40 µM"
>>> reading("CN1CCC(CNc2ncc(-c3cccnc3)cc2C(=O)NCc2ccc3c(N)nccc3c2)CC1")
"> 40 µM"
>>> reading("CN1CCC(CNc2ncccc2C(=O)NCc2ccc3c(N)nccc3c2)CC1")
"> 40 µM"
>>> reading("COCCN1CCC(CNc2ncc(Cl)cc2C(=O)NCc2ccc3c(N)nccc3c2)CC1")
"> 40 µM"
>>> reading("N#Cc1cccc(CNc2ncc(C(=O)NCc3ccc4c(N)nccc4c3)cc2Cl)c1")
"> 40 µM"
>>> reading("CN1CCC(Nc2ncc(C(=O)NCc3ccc4c(N)nccc4c3)cc2Cl)CC1=O (stereo not drawn)")
"> 40 µM"
>>> reading("Nc1nccc2cc(CNC(=O)c3cc(Cl)cnc3NCC34CCN(CC3)CC4)ccc12")
"> 40 µM"
>>> reading("Nc1nccc2cc(CNC(=O)c3cnc(CN4CCN(c5ccncc5)CC4)c(Cl)c3)ccc12")
"> 40 µM"
>>> reading("CN1C(C)(C)CC(Nc2ncc(C(=O)NCc3ccc4c(N)nccc4c3)cc2Cl)CC1(C)C")
"> 40 µM"
>>> reading("CN1CCC(CNc2nc(C3CC3)ccc2C(=O)NCc2ccc3c(N)nccc3c2)CC1")
"> 40 µM"
>>> reading("COCCN1CCC(Nc2ncc(C(=O)NCc3ccc4c(N)nccc4c3)cc2Cl)CC1")
"> 40 µM"
>>> reading("CN1CCC(CNc2nccnc2C(=O)Nc2cccc3c(N)nccc23)CC1")
"> 40 µM"
>>> reading("COc1cnc(NCC2CCN(C)CC2)c(C(=O)NCc2ccc3c(N)nccc3c2)c1")
"> 40 µM"
>>> reading("Nc1nccc2cc(CNC(=O)c3cc(Cl)cnc3N3CCN(c4ncccn4)CC3)ccc12")
"> 40 µM"
>>> reading("Cc1c(CNC(=O)c2nccnc2NCC2CCN(C)CC2)ccc2c(N)nccc12")
"> 40 µM"

---

Listed next: entries and their corresponding IC50.
- target-under-test: Human FXIa (Homo sapiens, UniProt P03951)
value-type: IC50

>>> reading("Nc1nccc2cc(CNC(=O)c3cnc(OCCCN4CCCCC4)c(Cl)c3)ccc12")
"> 40 µM"
>>> reading("CN(CC1CCN(c2ccncc2)CC1)c1ncc(C(=O)NCc2ccc3c(N)nccc3c2)cc1Cl")
"> 40 µM"
>>> reading("Nc1nccc2cc(CNC(=O)c3cnc(NCCn4cncn4)c(Cl)c3)ccc12")
"> 40 µM"
>>> reading("CN1CCC(CNc2ncc(Cl)cc2C(=O)NCc2c(Cl)cccc2-n2cnnn2)CC1")
"> 40 µM"
>>> reading("CN1CCC(CNc2ncc(-c3cnn(C)c3)nc2C(=O)NCc2ccc3c(N)nccc3c2)CC1")
"12.7 µM"
